# testedSystem: FBW7^ARG+pCycE (Homo sapiens, UniProt Q969H0, R505L)
# Construct: GST (TEV site and flexible linker) (N, cleaved yes); made in house; host or cells: SF9 insect cells (baculovirus)
# Sequence (Q969H0 64-707 R505L): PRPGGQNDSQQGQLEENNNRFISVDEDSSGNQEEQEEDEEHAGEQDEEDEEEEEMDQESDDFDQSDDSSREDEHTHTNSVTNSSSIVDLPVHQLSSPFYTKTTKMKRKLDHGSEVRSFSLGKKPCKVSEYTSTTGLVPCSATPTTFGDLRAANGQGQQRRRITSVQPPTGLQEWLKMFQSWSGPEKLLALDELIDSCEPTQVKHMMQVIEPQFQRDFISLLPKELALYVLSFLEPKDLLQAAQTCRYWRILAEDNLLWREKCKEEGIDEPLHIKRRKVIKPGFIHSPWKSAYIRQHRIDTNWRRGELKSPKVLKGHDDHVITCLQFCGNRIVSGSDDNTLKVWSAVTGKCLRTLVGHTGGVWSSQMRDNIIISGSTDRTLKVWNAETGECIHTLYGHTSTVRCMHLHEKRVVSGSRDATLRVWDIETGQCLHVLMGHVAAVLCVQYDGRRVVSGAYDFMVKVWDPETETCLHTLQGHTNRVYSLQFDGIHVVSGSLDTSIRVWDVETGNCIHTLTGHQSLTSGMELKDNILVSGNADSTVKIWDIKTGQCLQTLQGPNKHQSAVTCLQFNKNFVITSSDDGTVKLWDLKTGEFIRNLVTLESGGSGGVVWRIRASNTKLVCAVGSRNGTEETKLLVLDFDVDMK
# Sequence (P63208 2-163 partner): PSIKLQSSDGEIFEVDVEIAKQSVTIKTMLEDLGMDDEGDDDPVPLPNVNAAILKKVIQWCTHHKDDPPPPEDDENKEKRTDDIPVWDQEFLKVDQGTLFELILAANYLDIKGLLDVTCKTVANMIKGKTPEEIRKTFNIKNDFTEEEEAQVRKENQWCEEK
# test: FBW7^ARG-cyclin E agonist ALPHAscreen (primary PRUN, confirmation CRUN1, dose-response DRUN)
# Format: binding
# conditionsUsed: DRUN dose-response, raw curve fit; read-out: FBW7 ACT EC50 Curve Fit Raw, Molar
Reported EC50 values for a set of compounds
The figure you give is taken to be in µM; do not add the unit.

compound | testedSystem | recordedNumber
CC1=C(C(=O)OCc2ccccc2)C(c2cn(-c3ccccc3)nc2-c2ccc(F)cc2)C(C(=O)OCc2ccccc2)=C(C)N1 | FBW7^ARG+pCycE (Homo sapiens, UniProt Q969H0, R505L) | 0.0034
O=C(c1ccco1)N1CCN(c2ncc(-c3ccccc3CO)n3ccnc23)CC1 | FBW7^ARG+pCycE (Homo sapiens, UniProt Q969H0, R505L) | 20.3
Cc1cccc(CC(=O)Nc2cnn(-c3cccc(C(=O)N4CCNC(=O)CC4)c3)c2)c1 | FBW7^ARG+pCycE (Homo sapiens, UniProt Q969H0, R505L) | 7.5
NC(c1nc2cc(-c3ccncc3)cnc2[nH]1)c1ccc(F)cc1F.O=C(O)C(F)(F)F (centres unmarked) | FBW7^ARG+pCycE (Homo sapiens, UniProt Q969H0, R505L) | 8.8
CCN(CC)c1ccc2cc(-c3nc(C)cs3)c(=O)oc2c1 | FBW7^ARG+pCycE (Homo sapiens, UniProt Q969H0, R505L) | 8.2
CCN(CC)c1ccc2c(c1)OC(N)=C(C#N)C2c1ccccc1 (centres unmarked) | FBW7^ARG+pCycE (Homo sapiens, UniProt Q969H0, R505L) | 31.4
CC(C)[C@@H](CO)Nc1ccc2ncc(-c3cccc(Cl)c3)n2n1 | FBW7^ARG+pCycE (Homo sapiens, UniProt Q969H0, R505L) | 0.127

QUERY: # lookup: EC50 of `CSc1ccccc1C(=O)Nc1nc2nc(C)cc(C)c2s1`
RESULT: 53.6
